# TEST_PROTOCOL: yeast display, Sf9 membrane polyspecificity reagent, FACS + sequencing; frameworks hold sequencing errors
QUANTITY_MEASURED: polyreactivity (PSR sort gate)

SEQUENCE_DATA: QVQLVESGGGLVQAGGSLRLSCADSGFTFSWYTMGWYRQAPGKERELVAALTVSGGSTYYADSVKGRFTISRDNAKNTVYLQMNSLKPEDTAVYYCNAQDPFTYYSSSPTYDYWGQGTQVTVSS
OBS_VALUE: low polyreactivity
--
SEQUENCE_DATA: QVQLVESGGGLVQAGGSLRLSCAPSGFTFLGYDMGWYRQAPGKERELVAAIDYSGGSTYYADSVKGRFTISRDNAKNTVFLQMNSLKPEDTAVYDCAAEYQSGPYTWYEYWGQGTQVTVSS
OBS_VALUE: high polyreactivity
--
SEQUENCE_DATA: QVQLVESGGGLVQAGGSLRLSCAASGGTFLAYAMGWYRQAPGKERELLATITSGGSTNYADSVKGRFTISRDNAKNTVYVQMNSLKPEDTAVYYCAASGRDFIAESPYDYWGQGTQVTVSS
OBS_VALUE: low polyreactivity
--
SEQUENCE_DATA: QLQLVETGGGLVQAGGSLRLSCAASGRIFQYYVMGWYRQAPGKERELVAAITSGGSTYYADSVKGRFTISRDNAKNTVYLQMNSLKPEDTAVYYCAAGYWYNFDYWGQGTQVTVSS
OBS_VALUE: high polyreactivity
--
SEQUENCE_DATA: QVHLVESGGGIDQAGGSLRLSCAASGSTFTNNTMGWYRPAPGKERELVAGITKSGGSTYYADSVKGRFTISRDNAKKTVYLQMNSLKPEDTAVYYCATSTSRRYGSRHNYWGQGTQVTVSS
OBS_VALUE: high polyreactivity
--
SEQUENCE_DATA: QVQLVESGGGLVQAGGSLRLSCAASGSIFWYYAMGWYRQAPGKERELVAAISSGGSTYYADSVKGRYTISRDNAKNTVYLQMNSLKPEDTAVYYCAAGAFGQILNYWGQGTQVTVSS
OBS_VALUE: high polyreactivity
--
SEQUENCE_DATA: QVQLVESGGGIVQAGGSLRLSFAASGSTFAGYAMGLYREAPGKERELVATFTYSGGSTYYADSVKGRFSISRDNAKNTVYLQMNSLKPEDTAVYYCAKNASYLWGYEYWGQGTQVTVSS
OBS_VALUE: low polyreactivity
--
SEQUENCE_DATA: QVQLVESGGGLVQAGVSLRLRCASSGSIFRRNVMGWYRQAPGKERELVAAISWSGGRTYYADSVKGRFTISRDNAKNTVYLQMNSLKPEDTAVYYCAAENGYYAYDYWGQGTQVTVSS
OBS_VALUE: high polyreactivity
--
SEQUENCE_DATA: QVQLVESGGGLVQAGGSLRLSCAASGSTFNGYAMGWYRQAPGKERELVAAISKRGGSTYYADSVKGRFTISRDNEKNTVYLQMNSLKPEDTAVYYCAARNPTQYLMDYWGQGTQVTVSS
OBS_VALUE: high polyreactivity
--
SEQUENCE_DATA: QVQLVESGGALVQAGGSLRLSCSASGSLFIYYAIRWYRQAPGKERELVAAISISGARTYYADSVKGRFTNSRDNAKNTVYLQMNSLKPEDTAVYYCNVSSRRLRGLDYWGQVTQVTVSS
OBS_VALUE: low polyreactivity
--
SEQUENCE_DATA: QVQLVESGGGLVQAGGSLRLSCAASGSTFTGYTKGWYRQAPGKERELVAAITYRGGSTYYADSVKGRFTISRDNAKNTVYLQMNSLKPEDTAVYYCAAVPEYYEYSPYDYWGQGTQVTVSS
OBS_VALUE: low polyreactivity
--
SEQUENCE_DATA: QVQLVESGGGLVQAGGTLRLSCAASGLTFGYNAMVWYRQAPRKERELVATISYSGGRTYYADSVKGRFTISRDTAKNTVYLQMNSLKPEDTAVYSCAARRASGPYGFGYWGQGTQVTVSS
OBS_VALUE: high polyreactivity
--
SEQUENCE_DATA: QVQLVESGGGLVQAGGSLRLSCAASGRTFATYAMGWYRQAPGKERELVAAITSGGSTNYADSVKGRFTISRDNAKNTVYLQMNSLKPEDTAVYYCNAYKTNRGSGPWYTGRYDYWGQGTQVTVSS
OBS_VALUE: low polyreactivity
--
SEQUENCE_DATA: QVQLVESGGGLVQAGGSLRLSCAASGRTFSLYDMGWYRQAPGKERELVAAISYSGTRTYYADSVKGRFTISRDNAKNTVYLQMNCLKPEDTAVYYCARVYTVGTGRSWRLDYWGQGTQVTVSS
OBS_VALUE: high polyreactivity
--
SEQUENCE_DATA: QVQLVESGGGLDQAGGSLRLSCAASGRTFNPYVLGWYRQAPGKERELVAVITSSGDSTYYADSVKGRFTISRDNAKNTVYLQMNSLKPEDTAVYYCNADYLYYDYDYWGQGTQVTVSS
OBS_VALUE: high polyreactivity
--
SEQUENCE_DATA: QVQLVESGGGLVQAGGSLRLTCAASGRTFGTYVMGWYIQAPGKERELVATISRRGGTTYYADSVKGRFTISRDNAKNTVYLQMNSLKPVDNAVYYCAATYFGTRYDYWGQGTQVTVSS
OBS_VALUE: high polyreactivity
--
SEQUENCE_DATA: QVQLVESGGGLVQAGGSLRLSCAASGRTFYNNAMGWYRPAPGKERELVAAISQRTGRTYYADSVKGRFTISRDNAKNTVYLQMNSLKPEDTAVYYCNKVAYYSRRMDYWGQGTQVTVSS
OBS_VALUE: high polyreactivity
--
SEQUENCE_DATA: QVQLVESGGGLVQAGGSLRLSCAASGRIFYKYVMGWYRQAPGKERELVAAINRSGGTTYYADSVKGRFTISRDNAKNTVYLQMNSLKPEDTAVYYCNATLPDYWPYYYYQGGDDYWGQGTQVTVSS
OBS_VALUE: low polyreactivity
--
SEQUENCE_DATA: QVQLVESGGGLVQAGGSLRLSCAASGSTFGYNDMGWYRQAPGKERELVAAISVSDSSTYYADSVKGRFTISRDYAKNTVYLQMNCLKPEDTAVYYCAAEYYVGFTYRYEYWGQGTQVTVSS
OBS_VALUE: low polyreactivity
--
SEQUENCE_DATA: QVQLVESGGGLVQAGGSLRLSCAASGNTFYLYAMGWYRQAPGKERELVASITGGTRTNYADSVKGRFTISRDNAKNTVYLQMNSLKPEDTAVYYCAKTYPRTVGKYLSRGGYYYWGQGTQVTVSS
OBS_VALUE: high polyreactivity
--
SEQUENCE_DATA: QVQLVESGGGLVQAGGSLRLSCAASGLIFAEYAMGWYRQAPGKERELVARITSGGSTDYADSVKGRFTISRDNAKNTVYLQMNSLKPEDTAVYYCAARYYSQDKNASTASDFDYWGQGTQVTVSS
OBS_VALUE: low polyreactivity

###

# TEST_PROTOCOL: yeast display, Sf9 membrane polyspecificity reagent, FACS + sequencing; frameworks hold sequencing errors

SEQUENCE_DATA: QVQLVESGGGLVQAGGSLRLSCAASGSIINIYAMGWYRQAPGKERELVATITGIADSTYYADSVKGRFTISRDNAQNSVYLQMNSLKPEETAVYFCAADKYVAEYDYWGQGSQVTVSS
polyreactivity (PSR sort gate): low polyreactivity
//
SEQUENCE_DATA: QVQLVESGGGLDQAGGSLRLSCAASGSIFPFYAMGWYRQAPGKERELVAAISSRGGSTYYADSVKGRFTISRDNAKNTVYLQMNSLKPEDTAVYYCAARDYSIKVRLGYWGQGTHVTVSS
polyreactivity (PSR sort gate): low polyreactivity
//
SEQUENCE_DATA: QVQLVESGGGLVQAGGSLRLSCAASGRIFLYNAMGWYRQAPGKERELVASISSGDTTNYADSVKGRFTISRDNAKKTVYLQMNSLKPEDTAVYYCAADGQYSVIVKYDSWGQGTQVTVSS
polyreactivity (PSR sort gate): low polyreactivity
//
SEQUENCE_DATA: QVQLVESGGGLVQAGCSLRLSCADSGLTFTFYAMGWYRQAPGKVRELVAAISTSGASTYYADSVKGRFTISRDNANNTVYLQMNSLKPEDTAVYYCAAEYSYSSYLWYDYWGQGTQVTVSS
polyreactivity (PSR sort gate): high polyreactivity
//
SEQUENCE_DATA: QVQLVESGGGLVQAGGSLRLSCAASGSIFISYAMGWYRQAPGKERELVAAISRSAGRTYYADSVKGRFTISRDNAKNTVYLQMNSLKPEDTAVYYCAASGYKNGVYTYGYWGQGTQVTVSS
polyreactivity (PSR sort gate): high polyreactivity

###

# TEST_PROTOCOL: yeast display, Sf9 membrane polyspecificity reagent, FACS + sequencing; frameworks hold sequencing errors
QUANTITY_MEASURED: polyreactivity (PSR sort gate)

SEQUENCE_DATA: QVQLQESGGGLVQAGGSLLICAASGTISWVDEMGWYRQAPGNERELVAGIAGGGNTNYADSVKGRYTISRDNAKNTVYLEMNSLDTAVYYCAVVGFGRGTHIYWGQGTQVTVSS
QUANTITY_MEASURED: polyreactivity (PSR sort gate)
OBS_VALUE: high polyreactivity
--
SEQUENCE_DATA: QVQLVESGGGLVQAGGSLRLSCAASGSIFSGNAMGWYRQAPGKVRELVAAISRSGGSTYYADSVKGRFTISRDNAKNTVYLQMNSLKPEDTAVYYCAAYRTHGPPRAIRFDYWGQGTQVTVSS
QUANTITY_MEASURED: polyreactivity (PSR sort gate)
OBS_VALUE: high polyreactivity
--
SEQUENCE_DATA: QVQLVESGGGLVQAGGSLRLSCAASGSIFITYAMGWYRQAPGKERELVAAIRDSGDRTYYADSVKGRFTISRDKAKNTDYLQKNSLKPEDTAVYYCNARWQEPLKYDYWGQGTQVTVSS
QUANTITY_MEASURED: polyreactivity (PSR sort gate)
OBS_VALUE: low polyreactivity
--
SEQUENCE_DATA: QVQLVESGGVLVQAGGTLRFSCAPSGLTFVYYTMRWYRQAPGQEREFVAGIDWSGGSTYYADSVKGRFTISRDNAKNTVYLHMNSLKPEDTAVYYCAAAVYYQYCVYRHDYWGKGTQVTVSS
QUANTITY_MEASURED: polyreactivity (PSR sort gate)
OBS_VALUE: low polyreactivity
--
SEQUENCE_DATA: QVQLVDSGGGLVQAGGSLRLTCAASGRTFYGNAMGWYRQAPGKERELVATINYSGGSTYYADSVKGRFTISRDNAKNTVYLQMNSLKPEDTAVYYCAADDPEEFDYWGQGTQVTVSS
QUANTITY_MEASURED: polyreactivity (PSR sort gate)
OBS_VALUE: low polyreactivity
--
SEQUENCE_DATA: QVQLVESVGGLVQAGGSLRLSCASSGRIFRGNAMGWYRQAPGKERELVAAINSRGTHTYYADSVKGRFTISRDNAKNTVYLQMNSLKPEDTAVYYCAATWTQPQPGYYAYYYWGQGTQVSVSS
QUANTITY_MEASURED: polyreactivity (PSR sort gate)
OBS_VALUE: high polyreactivity
--
SEQUENCE_DATA: QVQHVESGGGLVQAGGSLSLICAASGSIFCYYAMGWYRKAPGKERELVAAIDSGGSTYYADSVKGRFTISRDNAKNTVYLQMNILKPEDTAVYYCAAGVSSFSPYDSWGQGTQVTVSS
QUANTITY_MEASURED: polyreactivity (PSR sort gate)
OBS_VALUE: low polyreactivity
--
SEQUENCE_DATA: QVQHEESGGGLVQAGGSLRLSCASSGLIFKFSAMGWYRQAPGKERELVAAITSRGGSTYYADSVKGRFTISRDNAKNTVYFQMNSLKPEDTEVYYCAADVRTQHYNAQYDYWGQGTQVTVSA
QUANTITY_MEASURED: polyreactivity (PSR sort gate)
OBS_VALUE: high polyreactivity
--
SEQUENCE_DATA: QVQLVESGGGLVQAGGSLRLSCAASGRIFLWYAMGWYRQAPGKERELVAAISSGGSTKYADSVKGRFTISRDNAKNTVYLQMNSLKPEDTAVYYCAATRKYSYVTYYYWGQGTQVTVSS
QUANTITY_MEASURED: polyreactivity (PSR sort gate)
OBS_VALUE: high polyreactivity
--
SEQUENCE_DATA: QVQHVESGGGLVQAGRSLRLICAASGSTFLEYAMGWYRQAPGKERELVASISWSGGSTNYADSVKGRFTFSRDNAKNTVYLQMNSLKPEDTAVFYCNARGWSVVSSRYGYWGQGTQVTVSS
QUANTITY_MEASURED: polyreactivity (PSR sort gate)
OBS_VALUE: low polyreactivity
--
SEQUENCE_DATA: QVQLVESGGGLVQAGGSLRLSCAASGRIFGFNALGWYRQAPGKEREFVAAMSGNGGSTYYADSVKGRFTISRDTAKNTVYLPMLSLNPEDTADYYSAASVHATYFSGARHWVKLYDWRQGTQVTVSS
QUANTITY_MEASURED: polyreactivity (PSR sort gate)
OBS_VALUE: high polyreactivity

This collection of values is drawn from the nanobody polyreactivity screen of Harvey et al. (2022).
